Measurement target: T1, human TL1A extracellular domain with N-terminal HIS and FLAG tag (human, UniProt O95150 72-251)
T1 construct: the whole entry is named; also called TNFSF15
T1 sequence: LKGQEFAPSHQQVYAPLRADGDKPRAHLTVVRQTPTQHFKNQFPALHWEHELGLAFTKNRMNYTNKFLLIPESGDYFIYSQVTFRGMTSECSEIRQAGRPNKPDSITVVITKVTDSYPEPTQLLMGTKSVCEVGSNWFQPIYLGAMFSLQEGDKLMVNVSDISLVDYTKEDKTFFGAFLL
Protocol text: SPR Run 7, antibody on Protein A, TL1A 5 ug/mL, timepoint 220
Quantity kind: TL1A Binding Level (Late) (RU)
Reply numerically in RU, unit not repeated.

Look over these answered cases.
{"Binder": "320-576 (antibody, human IgG1, name in Kabat numbering, V domains shown, full-length human IgG1, lambda) VH: QVQLVQSGAEVKKPGASVKVSCKASGYTFTSYDINWVRQAPGQGLEWMGWLNPNSGNTGYKQKFQGRVTMTADRSTSTAYMELSSLRSEDTAVYYCAREVPETAAFEYWGQGTLVTVSS VL: QSVLTQPPSVSGAPGQRVTISCTSSSSDIGAGLGVHWYQQLPGTAPKLLIEGYYNRPSGVPDRFSGSKSGTSASLTITGLLPEDEGDYYCQSYDGTLSALFGGGTKLTVLG", "Observed result": 83}
{"Binder": "320-509 (antibody, human IgG1, name in Kabat numbering, V domains shown, full-length human IgG1, lambda) VH: QVQLVQSGAEVKKPGASVKVSCKASGYTFTSYDINWVRQAPGQGLEWMGWLNHNSGNTGYAQKFQGRVTMTADRSTSTAYMELSSLRSEDTAVYYCAREVPETAAFEYWGQGTLVTVSS VL: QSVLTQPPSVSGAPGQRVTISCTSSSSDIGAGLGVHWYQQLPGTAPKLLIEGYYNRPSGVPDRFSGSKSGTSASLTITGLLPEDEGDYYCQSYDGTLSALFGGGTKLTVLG", "Observed result": 47}

Look up TL1A Binding Level (Late) for this binder: 320-506 (antibody, human IgG1, name in Kabat numbering, V domains shown, full-length human IgG1, lambda) VH: QVQLVQSGAEVKKPGASVKVSCKASGYTFTSYDINWVRQAPGQGLEWMGWLNSNSGNTGYAQKFQGRVTMTADRSTSTAYMELSSLRSEDTAVYYCAREVPETAAFEYWGQGTLVTVSS VL: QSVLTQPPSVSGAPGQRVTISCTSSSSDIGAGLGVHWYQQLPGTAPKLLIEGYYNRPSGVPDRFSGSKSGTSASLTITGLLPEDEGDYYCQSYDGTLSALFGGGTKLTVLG
89

src = patent US20170081400A1
